Target: ErbB2 (Homo sapiens, UniProt P04626)
Construct: provided by Dr. Che Law, Xcyte Therapeutics, Seattle
Sequence (P04626 23-652 limits assumed): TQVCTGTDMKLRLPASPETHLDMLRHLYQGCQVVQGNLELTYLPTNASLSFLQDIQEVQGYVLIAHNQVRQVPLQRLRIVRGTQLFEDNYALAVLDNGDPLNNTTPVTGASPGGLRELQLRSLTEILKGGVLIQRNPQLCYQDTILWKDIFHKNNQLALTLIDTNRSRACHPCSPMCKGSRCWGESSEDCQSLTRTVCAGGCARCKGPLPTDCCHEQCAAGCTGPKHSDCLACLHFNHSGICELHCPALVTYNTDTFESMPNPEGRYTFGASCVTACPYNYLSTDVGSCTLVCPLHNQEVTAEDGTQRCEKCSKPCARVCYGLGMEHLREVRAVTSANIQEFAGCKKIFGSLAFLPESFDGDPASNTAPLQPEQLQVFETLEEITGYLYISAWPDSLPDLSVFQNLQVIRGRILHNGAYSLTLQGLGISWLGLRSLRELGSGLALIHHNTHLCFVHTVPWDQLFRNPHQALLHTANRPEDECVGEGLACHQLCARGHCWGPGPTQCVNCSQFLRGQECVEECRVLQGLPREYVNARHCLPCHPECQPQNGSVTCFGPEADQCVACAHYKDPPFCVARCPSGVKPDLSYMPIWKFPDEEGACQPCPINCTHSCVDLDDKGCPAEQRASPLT
Assay: Surface plasmon resonance (Biacore) binding to immobilized ErbB2 extracellular domain
Conditions: immobilized extracellular domain, surface plasmon resonance; read-out: KD (μM) ErbB2
Bridge positions count the residues as written; N and C are the ends. Peptide text beside a SMILES is read from it.
metric: Kd

>>> recorded_value("CC[C@H](C)[C@@H]1NC(=O)[C@H](Cc2ccc(O)cc2)NC(=O)[C@@H](NC(=O)[C@@H](N)Cc2ccccc2)CSSC[C@@H](C(=O)N[C@@H](Cc2ccc(O)cc2)C(N)=O)NC(=O)[C@H](CCC(N)=O)NC(=O)[C@H](CC(=O)O)NC(=O)[C@H](CCC(=O)O)NC(=O)[C@H](C(C)C)NC(=O)[C@H](CCC(=O)O)NC(=O)CNC1=O [CD4-G, reference compound] (H-FCYIGEVEDQCY-NH2; disulfide 2-11)")
"> 1000 µM"
